assay-remarks: in vivo
condition-info: BALB/c nude, mouse, in vivo, iv, total radioactivity, uptake Tumor
recorded-endpoint: tissue uptake at 24 h (%ID/g)
Answers are plain numbers, in %ID/g.

{"compound": "C[C@@H](O)[C@H](NC(=O)[C@@H]1CSSC[C@H](NC(=O)[C@@H](Cc2ccccc2)NC(=O)[C@H](CCCCNC(=O)c2cccc(NC(=O)N[C@@H]3CN(C4CCCCC4)c4ccccc4N(CC(=O)C(C)(C)C)C3=O)c2)NC(=O)CCOCCOCCOCCNC(=O)CN2CCN(CC(=O)O)CCN(CC(=O)O)CCN(CC(=O)O)CC2)C(=O)N[C@@H](Cc2ccc(O)cc2)C(=O)N[C@H](Cc2c[nH]c3ccccc23)C(=O)N[C@@H](CCCCN)C(=O)N[C@@H]([C@@H](C)O)C(=O)N1)C(=O)O [Compound I-48, DOTA-PEG3-K(Z360)-f[CYwKTC]T-OH]", "tissue uptake at 24 h [%ID/g]": 18.9}
{"compound": "C[C@@H](O)[C@H](NC(=O)[C@@H]1CSSC[C@H](NC(=O)[C@@H](Cc2ccccc2)NC(=O)COCCOCCNC(=O)[C@H](CCCCNC(=O)c2cccc(NC(=O)N[C@@H]3CN(C4CCCCC4)c4ccccc4N(CC(=O)C(C)(C)C)C3=O)c2)NC(=O)COCCOCCNC(=O)CN2CCN(CC(=O)O)CCN(CC(=O)O)CCN(CC(=O)O)CC2)C(=O)N[C@@H](Cc2ccc(O)cc2)C(=O)N[C@H](Cc2c[nH]c3ccccc23)C(=O)N[C@@H](CCCCN)C(=O)N[C@@H]([C@@H](C)O)C(=O)N1)C(=O)O [Compound I-52, DOTA-OEG-K(Z360)-OEG-f[CYwKTC]T-OH]", "tissue uptake at 24 h [%ID/g]": 12.4}
{"compound": "C[C@@H](O)[C@H](NC(=O)[C@@H]1CSSC[C@H](NC(=O)[C@@H](Cc2ccccc2)NC(=O)COCCOCCNC(=O)[C@H](CCCCNC(=O)[C@H](CCC(=O)O)NC(=O)c2cccc(NC(=O)N[C@@H]3CN(C4CCCCC4)c4ccccc4N(CC(=O)C(C)(C)C)C3=O)c2)NC(=O)CN2CCN(CC(=O)O)CCN(CC(=O)O)CCN(CC(=O)O)CC2)C(=O)N[C@@H](Cc2ccc(O)cc2)C(=O)N[C@H](Cc2c[nH]c3ccccc23)C(=O)N[C@@H](CCCCN)C(=O)N[C@@H]([C@@H](C)O)C(=O)N1)C(N)=O [Compound I-3, DOTA-K(-E-Z360)-OEG-f[CYwKTC]T-NH2]", "tissue uptake at 24 h [%ID/g]": 13.6}

Okay, now this compound:
Measured tissue uptake at 24 h of C[C@@H](O)[C@H](NC(=O)[C@@H]1CSSC[C@H](NC(=O)[C@@H](Cc2ccccc2)NC(=O)CC[C@H](NC(=O)[C@H](CCCCNC(=O)CC[C@H](NC(=O)CNC(=O)c2cccc(NC(=O)N[C@@H]3CN(C4CCCCC4)c4ccccc4N(CC(=O)C(C)(C)C)C3=O)c2)C(=O)O)NC(=O)CC[C@H](NC(=O)CN2CCN(CC(=O)O)CCN(CC(=O)O)CCN(CC(=O)O)CC2)C(=O)O)C(=O)O)C(=O)N[C@@H](Cc2ccc(O)cc2)C(=O)N[C@H](Cc2c[nH]c3ccccc23)C(=O)N[C@@H](CCCCN)C(=O)N[C@@H]([C@@H](C)O)C(=O)N1)C(=O)O : 10.9
